# Tested on: HCV replicon 1A
# PROTOCOL TEXT: microbe, parasite or virus in culture
# Type: cell-based, Hepatitis C virus (HCV)
# PARTICULARS: HCV replicon 1A; Replicon Assay A
# Method: To measure cell-based anti-HCV activity of compounds of the present invention, two complimentary assays were employed using various replicons. […] The replicon RNA level was measured using real time PCR (TaqMan® EZ RT-PCR, Applied Biosystems 403028) with the following primers and probes: […] The amount of HCV replicon RNA per cell is quantified using a linear regression curve for a known nanogram (ng) amount of HCV replicon total RNA. […]
Please provide measured pIC50 for the entries that follow.
Conceptually, pIC50 converts a concentration in mol/L into minus its log10.

QUERY: Which pIC50 reading was recorded for the compound COC(=O)NC(C(=O)N1[C@@H]2C[C@@H]2C[C@H]1c1ncc(-c2ccc3c(c2)cc2n3C(c3ccc(CC4CC4)s3)Oc3cc(-c4cnc([C@@H]5CCCN5C(=O)[C@@H](NC(=O)OC)C(C)C)[nH]4)cc(F)c3-2)[nH]1)C1CCOC(C)(C)C1 (single isomer, unassigned) [Compound 416] ?
RESULT: 11.64

QUERY: Could you do the same for COC(=O)NC(C(=O)N1[C@@H]2C[C@@H]2C[C@H]1c1ncc(-c2ccc3c(c2)c(F)c2n3C(c3ccc(C4CC4)s3)Oc3cc(-c4cnc([C@@H]5CCCN5C(=O)[C@@H](NC(=O)OC)C(C)C)[nH]4)ccc3-2)[nH]1)C1C[C@@H](C)O[C@@H](C)C1 (single isomer, unassigned) [Compound 645] , please?
RESULT: 11.59

---

# System: HCV replicon 1AQ30D
# PROTOCOL TEXT: microbe, parasite or virus in culture
# Format: cell-based, Hepatitis C virus (HCV)
# PARTICULARS: HCV replicon 1A Q30D; Replicon Assay B; read-out: 1A Q30D IC50
RECORDED METRIC: IC50 (nM)
Kindly answer with a numeric value in nM, unit omitted.

QUERY: Which IC50 reading was recorded for the molecule COC(=O)NC(C(=O)N1CCCC1c1ncc(-c2cc(F)c3c(c2)OC(c2ccc(C4CC4)s2)n2c-3cc3cc(-c4cnc(C5CCCN5C(=O)C(NC(=O)OC)C5CCOC(C)C5)[nH]4)ccc32)[nH]1)C(C)C (mixture of isomers) ?
RESULT: 0.029

QUERY: Could you do the same for COC(=O)N[C@H](C(=O)N1CCC[C@H]1c1ncc(-c2cc(F)c3c(c2)OC(c2ccc(C4CC4)s2)n2c-3cc3cc(-c4cnc([C@@H]5C[C@H]6C[C@H]6N5C(=O)[C@@H](NC(=O)OC)C5CCOCC5)[nH]4)ccc32)[nH]1)C(C)C (single isomer, unassigned) , please?
RESULT: 0.327

QUERY: Could you do the same for COC(=O)NC(C(=O)N1CCCC1c1ncc(-c2cc(F)c3c(c2)OC(c2cc4c(s2)CC2(C4)OCCO2)n2c-3cc3cc(-c4cnc(C5CCCN5C(=O)C(NC(=O)OC)C(C)C)[nH]4)ccc32)[nH]1)C(C)C (mixture of isomers) , please?
RESULT: 1.76

QUERY: Could you do the same for COC(=O)NC(C(=O)N1CCCC1c1ncc(-c2cc(F)c3c(c2)OC(c2cc4c(s2)CC(C)(C)C4)n2c-3cc3cc(-c4cnc(C5CCCN5C(=O)C(NC(=O)OC)C(C)C)[nH]4)ccc32)[nH]1)C(C)C (mixture of isomers) , please?
RESULT: 0.302
